Would you mind telling me the reported IC50 of each entry?
tested on: UniProtKB P34972
Sequence (P34972 whole entry): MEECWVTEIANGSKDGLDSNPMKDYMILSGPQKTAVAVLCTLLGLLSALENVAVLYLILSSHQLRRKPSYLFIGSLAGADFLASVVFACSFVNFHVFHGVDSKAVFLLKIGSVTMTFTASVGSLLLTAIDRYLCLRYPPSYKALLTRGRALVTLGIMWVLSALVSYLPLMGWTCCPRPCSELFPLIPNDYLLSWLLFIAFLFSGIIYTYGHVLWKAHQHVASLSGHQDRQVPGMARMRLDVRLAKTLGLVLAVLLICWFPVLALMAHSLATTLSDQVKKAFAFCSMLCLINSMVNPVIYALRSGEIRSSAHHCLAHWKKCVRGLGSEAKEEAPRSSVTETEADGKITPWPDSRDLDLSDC
assay: hCB2 radioligand binding assay ([3H]-CP 55,940 displacement)
condition description: hCB2 IC50 (CP displ, nM, HEK), HEK membranes

>>> obs_value("Cc1c(C(=O)c2cccc3ccccc23)c2sccc2n1CCN1CCOCC1")
"< 100 nM"
>>> obs_value("CCCn1c(C(=O)c2c(C)n(CCN3CCOCC3)c3ccccc23)cc2ccsc21")
"< 100 nM"
>>> obs_value("CCCn1c(C)c(C(=O)c2cc3cc(C)[nH]c3s2)c2ccccc21")
"1000 to 10000 nM"

// batch mode: one IC50 value per listed entry
1. CCCn1c(C)c(C(=O)c2cccc3ccccc23)c2ccsc21
2. CCCn1c(C(=O)c2c(C)n(S(=O)(=O)CC)c3ccccc23)cc2ccsc21
3. CCCn1c(C)c(C(=O)c2cc3ccsc3n2C)c2ccccc21
4. CCCn1c(C)c(C(=O)c2cc3ccsc3n2CCC)c2c1CCCC2
5. CCCn1c(C(=O)c2c[nH]c3ncccc23)cc2ccsc21
6. CCCn1cc(C(=O)c2cc3ccsc3n2CC)c2cccnc21
7. CCCn1c(C)c(C(=O)c2cc3sccc3s2)c2ccccc21
8. CCn1c(C(=O)c2c[nH]c3ccccc23)cc2ccsc21

Found:
100 to 1000 nM
100 to 1000 nM
100 to 1000 nM
< 100 nM
1000 to 10000 nM
< 100 nM
1000 to 10000 nM
100 to 1000 nM

Fill in IC50 for each of the 5 compounds listed.
1. CCCn1c(C)c(C(=O)c2cc3ccsc3n2CCC)c2c1CCCCC2
2. Cc1c(C(=O)c2cccc3ccccc23)c2ccsc2n1CCN1CCOCC1
3. CCCn1c(C(=O)c2c(C)n(CC)c3ccccc23)cc2ccsc21
4. CCCn1c(C)c(C(=O)c2cc3scnc3n2CC)c2ccccc21
5. CCCn1c(C(=O)c2c(C)[nH]c3ccccc23)cc2ccsc21

Found:
1: < 100 nM; 2: < 100 nM; 3: < 100 nM; 4: 100 to 1000 nM; 5: 100 to 1000 nM
